# ASSAY NAME: Aqueous solubility at pH 7.4
# Type: physicochemical
MEASUREMENT KIND: solubility (µg/mL)

COc1ccc2c(c1)c(/C=C1\Oc3cc(O)cc(O)c3C1=O)cn2CCCN1CCOCC1
3

P: Cn1c(-c2ccccc2)c(/C=C2\Oc3cc(O)cc(O)c3C2=O)c2ccccc21
Q: COc1ccc2[nH]c(-c3cccnc3)c(/C=C3\Oc4cc(O)cc(O)c4C3=O)c2c1
Q: Record comparison, field solubility: mark the lower of P and Q . Respond using the label that marks the chosen record.
Result: Q
(Q: 1 µg/mL, P: 2 µg/mL)

1: COc1ccc2c(c1)c(/C=C1\Oc3cc(O)cc(O)c3C1=O)cn2CCCN1CCN(CCO)CC1
2: COc1ccc2c(c1)c(/C=C1\Oc3cc(O)cc(O)c3C1=O)c(C)n2CCCN1CCN(CCO)CC1
Q: Between 1 and 2 , whose recorded solubility is greater? Identify your pick by its label.
Result: 2
